- experimental target: T1, mouse DLL4 expressed on CHO cells (mouse, UniProt Q9JI71 27-686)
- T1 construct: whole, on cells; also called mDLL4; CHO-mDLL4
- T1 sequence (Q9JI71 27-686): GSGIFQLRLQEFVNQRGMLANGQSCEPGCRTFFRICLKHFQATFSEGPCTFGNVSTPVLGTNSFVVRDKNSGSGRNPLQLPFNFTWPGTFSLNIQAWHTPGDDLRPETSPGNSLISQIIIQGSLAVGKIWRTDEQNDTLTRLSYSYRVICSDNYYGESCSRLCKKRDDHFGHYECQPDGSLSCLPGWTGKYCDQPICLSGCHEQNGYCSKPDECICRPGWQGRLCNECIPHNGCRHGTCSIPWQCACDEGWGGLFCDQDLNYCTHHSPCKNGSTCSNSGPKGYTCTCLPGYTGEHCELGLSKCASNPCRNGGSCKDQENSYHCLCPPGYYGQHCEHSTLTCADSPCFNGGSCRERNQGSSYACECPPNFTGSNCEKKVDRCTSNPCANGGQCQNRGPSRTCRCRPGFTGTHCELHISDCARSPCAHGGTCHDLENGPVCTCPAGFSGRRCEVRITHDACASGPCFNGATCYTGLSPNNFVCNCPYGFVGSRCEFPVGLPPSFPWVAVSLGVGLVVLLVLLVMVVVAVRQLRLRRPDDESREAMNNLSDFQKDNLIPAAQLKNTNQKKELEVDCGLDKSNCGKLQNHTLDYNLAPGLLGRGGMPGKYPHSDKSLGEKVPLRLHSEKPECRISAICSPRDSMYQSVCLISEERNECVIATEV
- test details: FACS; summary table, column taken as mDLL4
Recorded EC50 by entry
quantity name: EC50 (nM)

INSERT INTO results (binder, quantity_name, unit_text, meas_value) VALUES
  ('DLLBII129D08 (VHH, not shown: small tags and cut ends) VHH: EVQLVESGGGLVQAGGSLRLSCAASGRTFSSYAMAWYRQAPGKEREYVAAIRWSGGTAYYADSVQGRFTISRDNAKNTVYLQMNSLKPEDTAVYYCANRAPDTRLEPYLYDYWGQGTQVTVSS', 'EC50', 'nM', 3.7),
  ('DLLBII136C07 (VHH, not shown: small tags and cut ends) VHH: EVQLVESGGGLVQPGGSLRLSCAASGFTFGSYDMSWVRRSPGKGPEWVSSINSGGGSTYYADYVKGRFTISRDNAKNTLYLQMNSLKPEDTAVYYCAADRYIWARQGEYWGAYEYDYWGQGTQVTVSS', 'EC50', 'nM', 8.3);
